assay: Therapeutic drug monitoring: plasma levels by HPLC-UV, dose-normalized plasma concentrations; format: in vivo, human; settings: first monitored cycle
Reported values of mean interpatient variability in dose-normalized plasma concentrations (CV) for individual entries
assay readout: mean interpatient variability in dose-normalized plasma concentrations (CV)

| compound | assay result |
| --- | --- |
| C#Cc1cccc(Nc2ncnc3cc(OCCOC)c(OCCOC)cc23)c1 [Erlotinib, erlotinib] | 46.2% |
| CS(=O)(=O)CCNCc1ccc(-c2ccc3ncnc(Nc4ccc(OCc5cccc(F)c5)c(Cl)c4)c3c2)o1 [Lapatinib, lapatinib] | 60.7% |
| Cc1ccc(NC(=O)c2ccc(CN3CCN(C)CC3)cc2)cc1Nc1nccc(-c2cccnc2)n1 [Imatinib, imatinib] | 48.91% |
| CNC(=O)c1cc(Oc2ccc(NC(=O)Nc3ccc(Cl)c(C(F)(F)F)c3)cc2)ccn1 [Sorafenib, sorafenib] | 89.7% |

The measurements presented in this section are drawn from paper PMC9228468.
